Origin of values: patent US6440986B2

System: MT-4 cells (mock-infected)
Assay Procedure: cytotoxicity in mock-infected MT-4 cells (MTT)
Type: cell-based
Protocol: A rapid, sensitive and automated assay procedure was used for the in vitro evaluation of anti-HIV agents. […] Inhibition of the HIV-induced cytopathic effect was used as the end point. The viability of both HIV- and mock-infected cells was assessed spectrophotometrically via the in situ reduction of 3-(4,5-dimethylthiazol-2-yl)-2,5-diphenyltetrazolium bromide (MTT). […] The percent protection achieved by the compound in HIV-infected cells was calculated by the following formula: [formula] […]
Labelling field: enter 1 (yes) if recorded CC50 is less than 50 µM. Enter 0 (no) if it equals or exceeds that cut-off.

{"columns": ["Structure String", "Measured On", "Classification"],
 "data": [
  ["Cc1cc(C)c(N(C)c2ccnc(Nc3ccc(C#N)cc3)n2)c(C)c1", "MT-4 cells (mock-infected)", "1 (yes)"],
  ["N#Cc1ccc(Nc2nc(Cc3c(Cl)cccc3Cl)cc(NCCc3cccs3)n2)cc1", "MT-4 cells (mock-infected)", "0 (no)"],
  ["N#Cc1ccc(Nc2nccc(Nc3c(Cl)cc(C#N)cc3Cl)n2)cc1", "MT-4 cells (mock-infected)", "1 (yes)"],
  ["N#Cc1ccc(Nc2nc(Cc3c(Cl)cccc3Cl)cc(NCCO)n2)cc1", "MT-4 cells (mock-infected)", "0 (no)"],
  ["N#Cc1ccc(Nc2cc(Oc3c(Cl)cccc3Cl)nc(N)n2)cc1", "MT-4 cells (mock-infected)", "0 (no)"],
  ["Cc1cc(Cl)cc(C)c1Nc1ccnc(Nc2ccc(C#N)cc2)n1", "MT-4 cells (mock-infected)", "1 (yes)"],
  ["Cc1cc(C)c(Nc2nccc(Nc3ccc(C#N)cc3)n2)c(C)c1", "MT-4 cells (mock-infected)", "1 (yes)"]
]}

Next compound, please.
Say whether its CC50 is strictly beneath 50 µM. Entry: `CCOC(=O)Nc1cc(Cc2c(Cl)cccc2Cl)nc(Nc2ccc(C#N)cc2)n1` 1 (yes)
